Values from the METLIN SMRT retention time set (Domingo-Almenara et al. 2019)

method.notes: gradient 5% acetonitrile 3 min, to 50% in 2 min, to 85% in 15 min, held 3 min, 100 µL/min
condition.context: column: Zorbax Extend-C18 2.1 x 50 mm; eluents: water / acetonitrile, 0.1% formic acid
property.measured: RP-LC retention time (s)

Previously resolved entries follow.
>  <item.smiles>
CCCN(C)S(=O)(=O)c1cc(-c2nnc(C)o2)co1

>  <units.text>
s

>  <RP-LC retention time>
768

$$$$
>  <item.smiles>
Cc1ccccc1CNC(=O)Cn1cccc1-c1nnc(C2CCC2)o1

>  <units.text>
s

>  <RP-LC retention time>
920

$$$$
>  <item.smiles>
CC1CCN(c2cc(C(=O)O)c3cc(NC(=O)c4ccc(Br)cc4)ccc3n2)CC1

>  <units.text>
s

>  <RP-LC retention time>
689

$$$$
>  <item.smiles>
CC1(C)CC(=O)c2cn(-c3ccc(Cl)cc3)c(=O)c(C(=O)Nc3cccnc3)c2C1

>  <units.text>
s

>  <RP-LC retention time>
763

$$$$
>  <item.smiles>
CCOc1ccc(NC(=O)c2cc(=O)c3cc(CC)ccc3o2)c2cccnc12

>  <units.text>
s

>  <RP-LC retention time>
693

$$$$
>  <item.smiles>
O=C(C1CCN(c2nc3ccc(-c4cccs4)nc3s2)CC1)N1CCOCC1

>  <units.text>
s

>  <RP-LC retention time>
826

$$$$
>  <item.smiles>
Cc1ccccc1Nc1c(-c2cc(Br)ccc2F)nc2ccccn12

>  <units.text>
s

>  <RP-LC retention time>
808

$$$$

(A) CCOC(=O)c1c(C)oc2nc(C)nc(N3CCN(Cc4ccc5c(c4)OCO5)CC3)c12
(B) Cc1ccc(Cn2cccc2C(=O)C(=O)NC2CCCC2)cc1
// compare measured RP-LC retention time, left A , right B , return larger Mark your selection by writing its label.
B
(B: 1100 s, A: 708 s)
